system-tested: Serine/threonine-protein kinase Nek1 (Homo sapiens)
assay-text: Inhibition of NEK1 (unknown origin) at 10 uM relative to control
outcome-measure: % control (%)

- sample-smiles: "CN(C)C/C=C/C(=O)Nc1cccc(C(=O)Nc2ccc(Nc3nccc(-c4cccnc4)n3)cc2)c1"
  outcome-measure: "% control"
  result-unit: "%"
  reported-result: 77
- sample-smiles: "Fc1cc(-c2cc[nH]/c(=N/c3ccc(-n4cnc(N5CCOCC5)n4)cc3)n2)cc(N2CCOCC2)c1"
  outcome-measure: "% control"
  result-unit: "%"
  reported-result: 57
- sample-smiles: "Cc1cc(NC(=O)c2cccc(NC(=O)/C=C/CN(C)C)c2)ccc1Nc1nccc(-c2cccnc2)n1"
  outcome-measure: "% control"
  result-unit: "%"
  reported-result: 81
- sample-smiles: "Cc1ccc(NC(=O)c2ccc(NC(=O)/C=C/CN(C)C)cc2)cc1Nc1nccc(-c2cccnc2)n1"
  outcome-measure: "% control"
  result-unit: "%"
  reported-result: 100
